Listed next: entries and their corresponding TGI.
# System: NCI-H460 lung
# Protocol description: NCI tumour cell line growth inhibition, 48 h
Parameter: TGI

1. Cc1ccc(S(=O)(=O)Nn2c(-c3ccccc3)c(C#N)c(-c3ccc([N+](=O)[O-])cc3)c(C#N)c2=O)cc1 | > 100 µM
2. CC(C)(CN1CCCCC1)C(=O)CC(SCCS(=O)(=O)O)c1ccc(Br)cc1 (stereo unspecified) | 4.48 µM
3. COc1cc(C2SCC(=O)N2NC(=O)c2ccc(NC(C)=O)cc2)cc(OC)c1OC (stereo unspecified) | > 100 µM
4. CN(C)c1ccc(C(=NNC(=O)c2cc3ccccc3[nH]2)c2ccc(N(C)C)cc2)cc1 | > 100 µM
5. O=C1c2ccccc2S(=O)(=O)c2ccccc21 | > 100 µM
6. Cc1cccc(NC(=O)CC(=O)N2N=C(N3c4ccccc4Sc4ccccc43)CC2c2ccccc2)c1 (stereo unspecified) | > 100 µM
7. CCCCCCCCCCCCCCCC[N+]1(CC)CCCC1 | 1.62 µM
8. COC(=O)c1c(C)oc2ccc(OC(C)=O)cc12 | > 100 µM
9. CCOC(=O)c1cc(-c2ccc(OC)c(OC)c2)c[nH]1 | > 10 µM
10. O=C1c2cc3c(cc2CC12Cc1cc4c(cc1C2)CCC4)CCC3 | > 100 µM
11. Cc1cc(N(CCC#N)S(=O)(=O)c2ccccc2)ccc1C=O | > 100 µM
